Biological target: human Y2 receptor (human) (UniProt P49146)
Sequence (P49146 whole entry): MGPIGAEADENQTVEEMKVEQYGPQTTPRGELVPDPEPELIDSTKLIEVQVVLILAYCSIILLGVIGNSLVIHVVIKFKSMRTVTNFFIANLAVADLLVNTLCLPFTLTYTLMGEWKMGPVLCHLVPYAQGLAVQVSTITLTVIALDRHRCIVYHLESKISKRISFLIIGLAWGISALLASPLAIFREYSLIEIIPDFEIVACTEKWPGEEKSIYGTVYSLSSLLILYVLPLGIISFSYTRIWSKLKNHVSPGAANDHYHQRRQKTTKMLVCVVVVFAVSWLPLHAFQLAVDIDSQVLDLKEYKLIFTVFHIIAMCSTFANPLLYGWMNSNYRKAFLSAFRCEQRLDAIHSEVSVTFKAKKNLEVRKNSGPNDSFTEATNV
Experiment: RBA: displacement of [125I]-PYY from hY2R/CHO membranes
Starred links: 1 amine or outer side, 2 acyl side, 3 side chain; linkers in the order of their positions; H or OH if unused. Non-standard residues stand in square brackets, D forms with d. *: point of attachment. X2 = (tetrahydro-2H-pyran-4-ylmethyl)carbamoyl, O=C(NCC1CCOCC1)*; Ala(piperidin-4-yl) = O=C([C@H](CC1CCN([*:3])CC1)N[*:1])[*:2]; X7 = (tetrahydro-2H-pyran-4-yl)carbamoyl, O=C(NC1CCOCC1)*; Imidazole4carbonyl = O=C(c1cnc[nH]1)*; tBuAla = CC(C)(C)C[C@H](N)C(=O)O; 4Pal = N[C@@H](Cc1ccncc1)C(=O)O; Cha = N[C@@H](CC1CCCCC1)C(=O)O; Iva = CC[C@](C)(N)C(=O)O; Nle = CCCC[C@H](N)C(=O)O; Aib = CC(C)(N)C(=O)O; βAla = NCCC(=O)O
outcomeMeasure: IC50 Ratio (IC50 compound/IC50 PYY(3-36))

1) Ac-E[βAla]R[4Pal][Cha][Aib]NK[Aib]TRQR[Cha]-NH2 (SMILES CC(=O)N[C@@H](CCC(=O)O)C(=O)NCCC(=O)N[C@@H](CCCNC(=N)N)C(=O)N[C@@H](Cc1ccncc1)C(=O)N[C@@H](CC1CCCCC1)C(=O)NC(C)(C)C(=O)N[C@@H](CC(N)=O)C(=O)N[C@@H](CCCCN)C(=O)NC(C)(C)C(=O)N[C@H](C(=O)N[C@@H](CCCNC(=N)N)C(=O)N[C@@H](CCC(N)=O)C(=O)N[C@@H](CCCNC(=N)N)C(=O)N[C@@H](CC1CCCCC1)C(N)=O)[C@@H](C)O) [Ac-[Glu23, βAla24, Pya(4)26, Cha27,36, Aib28,31, Lys30]-PYY(23-36)] :: 7.4
2) Carbamoylmethylcarbamoyl-S[dP][Iva][4Pal][Cha][Aib]NK[Aib]TRQR[Cha]-NH2 [Carbamoylmethylcarbamoyl-[D-Pro24, Iva25, Pya(4)26, Cha27,36, Aib28,31, Lys30]-PYY(23-36)] :: 1.7
3) Ac-E[dP][Nle][4Pal][Cha][Aib]NK[Aib]TRQR[Cha]-NH2 (SMILES CCCC[C@H](NC(=O)[C@H]1CCCN1C(=O)[C@H](CCC(=O)O)NC(C)=O)C(=O)N[C@@H](Cc1ccncc1)C(=O)N[C@@H](CC1CCCCC1)C(=O)NC(C)(C)C(=O)N[C@@H](CC(N)=O)C(=O)N[C@@H](CCCCN)C(=O)NC(C)(C)C(=O)N[C@H](C(=O)N[C@@H](CCCNC(=N)N)C(=O)N[C@@H](CCC(N)=O)C(=O)N[C@@H](CCCNC(=N)N)C(=O)N[C@@H](CC1CCCCC1)C(N)=O)[C@@H](C)O) [Ac-[Glu23, D-Pro24, Nle25, Pya(4)26, Cha27,36, Aib28,31, Lys30]-PYY(23-36)] :: 7.5
4) Ac-S[dP][Ala(piperidin-4-yl)][4Pal][Cha][Aib]NK[Aib]TRQR[Cha]-NH2 (also: Ala(4Pip)25 D or L, not assigned, later peak isomer) [Ac-[D-Pro24, Ala(4Pip)25, Pya(4)26, Cha27,36, Aib28,31, Lys30]-PYY(23-36) later peak] :: 4.3
5) Ac-S[dP][Iva][4Pal][Cha][tBuAla]NK[Aib]TRQR[Cha]-NH2 (SMILES CC[C@](C)(NC(=O)[C@H]1CCCN1C(=O)[C@H](CO)NC(C)=O)C(=O)N[C@@H](Cc1ccncc1)C(=O)N[C@@H](CC1CCCCC1)C(=O)N[C@@H](CC(C)(C)C)C(=O)N[C@@H](CC(N)=O)C(=O)N[C@@H](CCCCN)C(=O)NC(C)(C)C(=O)N[C@H](C(=O)N[C@@H](CCCNC(=N)N)C(=O)N[C@@H](CCC(N)=O)C(=O)N[C@@H](CCCNC(=N)N)C(=O)N[C@@H](CC1CCCCC1)C(N)=O)[C@@H](C)O) [Ac-[D-Pro24, Iva25, Pya(4)26, Cha27,36, Leu(Me)28, Lys30, Aib31]-PYY(23-36)] :: 0.76
6) Ac-LS[dP]R[4Pal][Cha][Aib]NK[Aib]TRQR[Cha]-NH2 (SMILES CC(=O)N[C@@H](CC(C)C)C(=O)N[C@@H](CO)C(=O)N1CCC[C@@H]1C(=O)N[C@@H](CCCNC(=N)N)C(=O)N[C@@H](Cc1ccncc1)C(=O)N[C@@H](CC1CCCCC1)C(=O)NC(C)(C)C(=O)N[C@@H](CC(N)=O)C(=O)N[C@@H](CCCCN)C(=O)NC(C)(C)C(=O)N[C@H](C(=O)N[C@@H](CCCNC(=N)N)C(=O)N[C@@H](CCC(N)=O)C(=O)N[C@@H](CCCNC(=N)N)C(=O)N[C@@H](CC1CCCCC1)C(N)=O)[C@@H](C)O) [Ac-[Leu22, D-Pro24, Pya(4)26, Cha27,36, Aib28,31, Lys30]-PYY(22-36)] :: 1.2
7) X2-S[dP][Iva][4Pal][Cha][Aib]NK[Aib]TRQR[Cha]-NH2 (SMILES CC[C@](C)(NC(=O)[C@H]1CCCN1C(=O)[C@H](CO)NC(=O)NCC1CCOCC1)C(=O)N[C@@H](Cc1ccncc1)C(=O)N[C@@H](CC1CCCCC1)C(=O)NC(C)(C)C(=O)N[C@@H](CC(N)=O)C(=O)N[C@@H](CCCCN)C(=O)NC(C)(C)C(=O)N[C@H](C(=O)N[C@@H](CCCNC(=N)N)C(=O)N[C@@H](CCC(N)=O)C(=O)N[C@@H](CCCNC(=N)N)C(=O)N[C@@H](CC1CCCCC1)C(N)=O)[C@@H](C)O) :: 1.7
8) X7-S[dP][Iva][4Pal][Cha][Aib]NK[Aib]TRQR[Cha]-NH2 (SMILES CC[C@](C)(NC(=O)[C@H]1CCCN1C(=O)[C@H](CO)NC(=O)NC1CCOCC1)C(=O)N[C@@H](Cc1ccncc1)C(=O)N[C@@H](CC1CCCCC1)C(=O)NC(C)(C)C(=O)N[C@@H](CC(N)=O)C(=O)N[C@@H](CCCCN)C(=O)NC(C)(C)C(=O)N[C@H](C(=O)N[C@@H](CCCNC(=N)N)C(=O)N[C@@H](CCC(N)=O)C(=O)N[C@@H](CCCNC(=N)N)C(=O)N[C@@H](CC1CCCCC1)C(N)=O)[C@@H](C)O) [(Tetrahydro-2H-pyran-4-yl)carbamoyl-[D-Pro24, Iva25, Pya(4)26, Cha27,36, Aib28,31, Lys30]-PYY(23-36)] :: 1.7
9) Imidazole4carbonyl-E[dP]R[4Pal][Cha][Aib]NK[Aib]TRQR[Cha]-NH2 (SMILES C[C@@H](O)[C@H](NC(=O)C(C)(C)NC(=O)[C@H](CCCCN)NC(=O)[C@H](CC(N)=O)NC(=O)C(C)(C)NC(=O)[C@H](CC1CCCCC1)NC(=O)[C@H](Cc1ccncc1)NC(=O)[C@H](CCCNC(=N)N)NC(=O)[C@H]1CCCN1C(=O)[C@H](CCC(=O)O)NC(=O)c1cnc[nH]1)C(=O)N[C@@H](CCCNC(=N)N)C(=O)N[C@@H](CCC(N)=O)C(=O)N[C@@H](CCCNC(=N)N)C(=O)N[C@@H](CC1CCCCC1)C(N)=O) [4-Imidazolecarbonyl-[Glu23, D-Pro24, Pya(4)26, Cha27,36, Aib28,31, Lys30]-PYY(23-36)] :: 1.3
